So I've got pIC50 readings for Peptide deformylase (Staphylococcus aureus subsp. aureus Mu50), take a look.
// pIC50 is dimensionless: -log10 of concentration (M)

Hi! What's the reported pIC50 for CC[C@@H]1CCC/C=C/C=C/[C@H](O)C[C@@H](O)C/C=C\C=C\[C@@H](O[C@H]2O[C@@H](CO)[C@H](O)[C@@H](O)[C@@H]2O)C/C=C/C=C\C(=O)O1 on Peptide deformylase (Staphylococcus aureus subsp. aureus Mu50)?
4.24

Same for C[C@@H]1CCC/C=C/C=C/[C@H](O)C[C@@H](O)C/C=C/C=C/[C@@H](O[C@H]2O[C@@H](CO)[C@H](O)[C@@H](O)[C@@H]2O)C/C=C/C=C\C(=O)O1
4.21

Same for C[C@@H]1CCC/C=C\C=C\[C@H](O)C[C@@H](O)C/C=C\C=C\[C@@H](O[C@H]2O[C@@H](CO)[C@H](O)[C@@H](O)[C@@H]2O)C/C=C/C=C\C(=O)O1
4.92
